Where do these numbers come from? They come from ChEMBL document CHEMBL3596089.

Assign IC50 to each entry below.
STUDY_TARGET: Prostaglandin G/H synthase 1 (Homo sapiens, UniProt P23219)
Sequence (P23219 whole entry): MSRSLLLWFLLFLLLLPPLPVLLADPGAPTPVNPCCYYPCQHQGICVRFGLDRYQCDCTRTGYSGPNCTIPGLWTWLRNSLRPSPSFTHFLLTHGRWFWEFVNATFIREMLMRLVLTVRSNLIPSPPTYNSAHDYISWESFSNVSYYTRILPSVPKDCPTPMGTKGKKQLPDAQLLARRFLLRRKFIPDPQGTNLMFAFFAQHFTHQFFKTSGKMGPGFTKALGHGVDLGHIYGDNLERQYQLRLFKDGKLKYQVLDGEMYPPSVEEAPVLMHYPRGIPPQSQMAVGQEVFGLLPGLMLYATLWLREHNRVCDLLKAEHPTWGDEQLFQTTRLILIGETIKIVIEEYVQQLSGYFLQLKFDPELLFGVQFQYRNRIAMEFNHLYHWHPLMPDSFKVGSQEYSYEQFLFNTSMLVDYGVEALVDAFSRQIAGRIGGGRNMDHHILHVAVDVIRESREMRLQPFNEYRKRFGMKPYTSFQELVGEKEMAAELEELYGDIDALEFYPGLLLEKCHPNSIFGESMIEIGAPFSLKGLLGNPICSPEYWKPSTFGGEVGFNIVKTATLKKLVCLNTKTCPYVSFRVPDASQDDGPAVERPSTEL
PROTOCOL_NOTES: Inhibition of COX1 (unknown origin)
Output spec: scalar in µM, unitless text.

What value of measured IC50 is listed for COc1ccc([C@H]2C(CN3CCN(c4ccc(OC)cc4)CC3)=NO[C@@H]3CCCC[C@H]23)cc1 ?
40.4

What value of measured IC50 is listed for CC1(C)CC(c2ccccc2)C(CN2CCN(c3cccc(Cl)c3Cl)CC2)=NO1 (stereo not given) ?
54.9

What value of measured IC50 is listed for c1ccc([C@H]2C(Cn3c4ccccc4c4ccccc43)=NO[C@@H]3CCCC[C@H]23)cc1 ?
59.9

What value of measured IC50 is listed for CC1(C)CC(c2ccc(Cl)cc2)C(CN2CCC(c3noc4cc(F)ccc34)CC2)=NO1 (stereo not given) ?
40.1

What value of measured IC50 is listed for COc1ccc(N2CCN(CC3=NO[C@@H]4CCCC[C@@H]4[C@H]3c3ccccc3)CC2)cc1 ?
35.8
